// data source = patent US20240059769A1

- target: recombinant human IL-13 (human, UniProt P35225 35-146)
- Sequence (P35225 35-146 limits assumed): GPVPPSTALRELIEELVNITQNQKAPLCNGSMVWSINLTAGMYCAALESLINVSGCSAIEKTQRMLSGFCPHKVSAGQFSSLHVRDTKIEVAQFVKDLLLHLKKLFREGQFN
- assayProcedure: cell-based or functional assay
# HEK-IL-13 [nM] (IC50, STAT6 reporter) per entry
Numeric only. Scale: nM

Which HEK-IL-13 [nM] (IC50, STAT6 reporter) value belongs to BDG38.135 (antibody, V domains shown) VH: QMQLVESGGGVVQPGQSLRLSCAASGFAFRTYGMHWVRQAPGKGLEWLAVIWYDGSNTHYADSVKGRFTITRDNSKNTLNLQMNSLRAEDTAVYYCVRAPQWYNSAEAFDLWGQGTMVTVSS VL: SYVLTQPPSVSVAPGQTARITCGGNLIGARLVHWYQQKPGQAPVLVVYDDSDRPSHIPERFSGSNSGNTATLTISRVEAGDEADYYCQVWDHSADTMVFGGGTKLTVL ? 0.406

Which HEK-IL-13 [nM] (IC50, STAT6 reporter) value belongs to BDG38.108 (antibody, V domains shown) VH: QMQLVESGGGVVQPGRSLRLSCAASGFEFRTYGMHWVRQAPGKGLEWVGVIWYDGSNTHYADSVKGRFTITRDNSKNTLNLQMNSLRAEDTAVYYCVRAPQWYLTAEAFDLWGQGTMVTVSS VL: SYILTQPPSVSVAPGETATITCGGNLIGARLVHWYQQKPGQAPVLVIYDDSDRPSRIPERFSGSNIGNTATLTISDVEEGDEADYYCQVWDYYSNSYVFGGGTKLTVL ? 0.0659

Which HEK-IL-13 [nM] (IC50, STAT6 reporter) value belongs to BDG38.109 (antibody, V domains shown) VH: QMQLVESGGGVVQPGRSLRLSCAASGFEFRTYGMHWVRQAPGKGLEWVGVIWYDGSNTHYADSVKGRFTITRDNSKNTLNLQMNSLRAEDTAVYYCVRAPQWYLTAEAFDLWGQGTMVTVSS VL: SYILTQPPSVSVAPGQTATITCGGNLIGARLVHWYQQKPGQAPVLVIYDDSDRPSRIPERFSGSNIGNTATLTIERVEEGDEADYYCQVWDYSSNSYVFGGGTKLTVL ? 0.063

Which HEK-IL-13 [nM] (IC50, STAT6 reporter) value belongs to BDG38.136 (antibody, V domains shown) VH: QMQLVESGGGVVQPGRSLRLSCAASGFEFRTYGMHWVRQAPGKGLEWLAVIWYDGSNTHYADSVKGRFTITRDNSKNTLNLQMNSLRAEDTAVYYCVRAPQWYNSAEAFDLWGQGTMVTVSS VL: SYVLTQPPSVSVAPGQTARITCGGNLIGAKLVHWYQQKPGQAPVLVIYDDSDRPSHIPERFSGSNSGNTATLTISRVEAGDEADYYCQVWDYSSDTMVFGGGTKLTVL ? 0.151

Which HEK-IL-13 [nM] (IC50, STAT6 reporter) value belongs to BDG38.081 (antibody, V domains shown, IgG1) VH: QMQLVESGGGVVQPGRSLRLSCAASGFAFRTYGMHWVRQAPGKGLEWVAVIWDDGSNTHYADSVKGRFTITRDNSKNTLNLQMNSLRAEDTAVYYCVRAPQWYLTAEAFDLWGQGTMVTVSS VL: SYVLTQPPSVSVAPGQTARITCGGNMIGAYLVHWYQQKPGQAPLLVIYDDVDRPDRIPERFSGSNSGNTATLTISRVEAGDEADYYCQVWDHNTQQMVFGGGTKLTVL ? 0.0483

Which HEK-IL-13 [nM] (IC50, STAT6 reporter) value belongs to BDG38.102 (antibody, V domains shown) VH: QMQLVESGGGVVQPGRSLRLSCAASGFEFRTYGMHWVRQAPGKGLEWVGVIWYDGSNTHYADSVKGRFTITRDNSKNTLNLQMNSLRAEDTAVYYCVRAPQWYLTAEAFDLWGQGTMVTVSS VL: SYVLTQPPSVSVAPGETATITCGGNLIGARLVHWYQQKPGQAPVLVVYDDSDRPSRIPERFSGSNIGNTATLTIEDVEAGDEADYYCQVWDYSSNTYVFGGGTKLTVL ? 0.0421
